Entries and their measured Gram-negative MIC b follow.
test system: Escherichia coli 25922; experiment: Antibacterial activity, MIC by double-microdilution method; assay type: cell-based; conditions: Table 2; Escherichia coli 25922
MEASUREMENT_KIND: Gram-negative MIC b

O.O=C(O)c1cn(C2CC2)c2cc(N3CCN(Cc4ccc(CN5CCNCCNCCNCC5)cc4)CC3)c(F)cc2c1=O.[Co+3].[OH-] [4-Co(III)] | 6 µg/mL
N=C(N)NCCN1CCNCCNCCN(CCc2ccc(CN3CCN(c4cc5c(cc4F)c(=O)c(C(=O)O)cn5C4CC4)CC3)cc2)CC1 [Compound 20] | 24 µg/mL
O.O=C(O)c1cn(C2CC2)c2cc(N3CCN(Cc4ccc(CCCN5CCNCCNCCNCC5)cc4)CC3)c(F)cc2c1=O.[Cu+2] [6-Cu(II)] | 3 µg/mL
N=C(N)NCCN1CCNCCNCCN(CCCCc2ccc(CN3CCN(c4cc5c(cc4F)c(=O)c(C(=O)O)cn5C4CC4)CC3)cc2)CC1 [Compound 22] | 3 µg/mL
O.O=C(O)c1cn(C2CC2)c2cc(N3CCN(Cc4ccc(CCCN5CCNCCNCCNCC5)cc4)CC3)c(F)cc2c1=O.[Co+3].[OH-] [6-Co(III)] | 3 µg/mL
O.O=C(O)c1cn(C2CC2)c2cc(N3CCN(CCCCCCCN4CCNCCNCCNCC4)CC3)c(F)cc2c1=O.[Cu+2] [2-Cu(II)] | 6 µg/mL
O=C(O)c1cn(C2CC2)c2cc(N3CCN(CCCCCCCCN4CCNCCNCCNCC4)CC3)c(F)cc2c1=O [Compound 3] | 12 µg/mL
O.O=C(O)c1cn(C2CC2)c2cc(N3CCN(Cc4ccc(CN5CCNCCNCCNCC5)cc4)CC3)c(F)cc2c1=O.[Cu+2] [4-Cu(II)] | 12 µg/mL
O.O=C(O)c1cn(C2CC2)c2cc(N3CCN(CCCCCCCCN4CCNCCNCCNCC4)CC3)c(F)cc2c1=O.[Cu+2] [3-Cu(II)] | 6 µg/mL
O.O=C(O)c1cn(C2CC2)c2cc(N3CCN(Cc4ccc(CCN5CCNCCNCCNCC5)cc4)CC3)c(F)cc2c1=O.[Co+3].[OH-] [5-Co(III)] | 1.5 µg/mL

###

system: Staphylococcus Epidermidis; assay: Antibacterial activity, MIC by double-microdilution method; format: cell-based; details: Table 2
Collected Gram-positive MIC c values appear next to each entry.
MEASUREMENT_KIND: Gram-positive MIC c

NCCN1CCNCCNCCN(Cc2ccc(CN3CCN(c4cc5c(cc4F)c(=O)c(C(=O)O)cn5C4CC4)CC3)cc2)CC1 | 12 µg/mL
N=C(N)NCCN1CCNCCNCCN(CCc2ccc(CN3CCN(c4cc5c(cc4F)c(=O)c(C(=O)O)cn5C4CC4)CC3)cc2)CC1 | 24 µg/mL
O.O=C(O)c1cn(C2CC2)c2cc(N3CCN(CCCCCCN4CCNCCNCCNCC4)CC3)c(F)cc2c1=O.[Co+3].[OH-] | 24 µg/mL
O.O=C(O)c1cn(C2CC2)c2cc(N3CCN(CCCCCCCN4CCNCCNCCNCC4)CC3)c(F)cc2c1=O.[Co+3].[OH-] | 24 µg/mL
O.O=C(O)c1cn(C2CC2)c2cc(N3CCN(Cc4ccc(CCN5CCNCCNCCNCC5)cc4)CC3)c(F)cc2c1=O.[Co+3].[OH-] | 3 µg/mL
NCCN1CCNCCNCCN(CCCCc2ccc(CN3CCN(c4cc5c(cc4F)c(=O)c(C(=O)O)cn5C4CC4)CC3)cc2)CC1 | 6 µg/mL
O.O=C(O)c1cn(C2CC2)c2cc(N3CCN(Cc4ccc(CCN5CCNCCNCCNCC5)cc4)CC3)c(F)cc2c1=O.[Cu+2] | 6 µg/mL
O.O=C(O)c1cn(C2CC2)c2cc(N3CCN(CCCCCCCCN4CCNCCNCCNCC4)CC3)c(F)cc2c1=O.[Cu+2] | 6 µg/mL
O.O=C(O)c1cn(C2CC2)c2cc(N3CCN(Cc4ccc(CN5CCNCCNCCNCC5)cc4)CC3)c(F)cc2c1=O.[Co+3].[OH-] | 6 µg/mL
O.O=C(O)c1cn(C2CC2)c2cc(N3CCN(CCCCCCCCN4CCNCCNCCNCC4)CC3)c(F)cc2c1=O.[Co+3].[OH-] | 12 to 24 µg/mL
O.O=C(O)c1cn(C2CC2)c2cc(N3CCN(Cc4ccc(CCCN5CCNCCNCCNCC5)cc4)CC3)c(F)cc2c1=O.[Co+3].[OH-] | 3 µg/mL
N=C(N)NCCN1CCNCCNCCN(Cc2ccc(CN3CCN(c4cc5c(cc4F)c(=O)c(C(=O)O)cn5C4CC4)CC3)cc2)CC1 | 6 µg/mL
O=C(O)c1cn(C2CC2)c2cc(N3CCN(CCCCCCCCN4CCNCCNCCNCC4)CC3)c(F)cc2c1=O | 6 µg/mL
[Cl][Cu][Cl] [CuCl2, reference compound] | >384 µg/mL
